Sourced from ChEMBL document CHEMBL5058577

System: Fibroblast
Assay: Multiplex assay against human fibroblast
Format: toxicity, cell-based
Conditions: 48 h, 10 µM, compound concentration 10 uM, replicate 2
Consider the cut-off 5%. If the recorded Population Hoechst High Intensity Objects (%) is strictly smaller, the label is Yes; if not, the label is No.

{"compound": "CN(C)CCCc1cc(C(=O)Nc2ccc(-c3ccncc3)cc2)ccc1O.Cl.Cl", "target_desc": "Fibroblast", "category_label": "Yes"}
{"compound": "CC1(COc2ccc3c(c2)ncn3-c2ccc3cccc(N4CCC(N)CC4)c3n2)COC1", "target_desc": "Fibroblast", "category_label": "No"}
{"compound": "CC(=O)NCCc1c(Cc2ccccc2)[nH]c2ccccc12", "target_desc": "Fibroblast", "category_label": "Yes"}
{"compound": "COc1ccc2c(c1)C(C(=O)N(Cc1ccc(N(C)C)cc1)c1ccc(C(C)C)cc1)CCC2.Cl (centres undefined)", "target_desc": "Fibroblast", "category_label": "Yes"}
{"compound": "CCCN1CCC[C@@H]2Cc3n[nH]cc3C[C@H]21.Cl [QUINPIROLE HYDROCHLORIDE]", "target_desc": "Fibroblast", "category_label": "Yes"}
{"compound": "O=S(=O)(c1ccccc1)c1cnc2c(N3CCNCC3)cccc2c1 [INTEPIRDINE]", "target_desc": "Fibroblast", "category_label": "No"}
{"compound": "CCCn1c(=O)c2[nH]c(C3CCCC3)nc2n(CCC)c1=O", "target_desc": "Fibroblast", "category_label": "Yes"}

====

System: U2OS
Assay: Multiplex assay against U2OS
Format: toxicity, cell-based
Settings: human, 24 h, 1 µM, compound concentration 1 uM, replicate 1
quantity_kind: Population Tubulin-Different-Phenotype (%)

{"molecule": "O=C(O)Cc1ccccc1Nc1c(Cl)cccc1Cl", "value_units": "%", "endpoint_value": 2}
{"molecule": "Cc1ccc(C(C)(O)c2nc3ccccc3s2)c(C)c1 (centres undefined)", "value_units": "%", "endpoint_value": 3}
{"molecule": "CCCN1CCC[C@@H]2Cc3n[nH]cc3C[C@H]21.Cl [QUINPIROLE HYDROCHLORIDE]", "value_units": "%", "endpoint_value": 3}
{"molecule": "C[C@H](NC(=O)c1c(C(F)F)nn(C)c1Oc1cccc(C(F)(F)F)c1)c1ccc(C(=O)O)cc1", "value_units": "%", "endpoint_value": 3}
{"molecule": "N[C@@]1(C(=O)O)CO[C@H]2[C@H](C(=O)O)[C@H]21", "value_units": "%", "endpoint_value": 1}
{"molecule": "CCCn1c(=O)c2[nH]c(C3CCCC3)nc2n(CCC)c1=O", "value_units": "%", "endpoint_value": 4}
{"molecule": "Cl.Clc1ccc2nsnc2c1NC1=NCCN1 [TIZANIDINE HYDROCHLORIDE]", "value_units": "%", "endpoint_value": 5}
{"molecule": "COc1ccc2c(c1)C(C(=O)N(Cc1ccc(N(C)C)cc1)c1ccc(C(C)C)cc1)CCC2.Cl (centres undefined)", "value_units": "%", "endpoint_value": 4}
{"molecule": "COc1c(C)cc(NC(=O)c2nn(Cc3ccc(F)cc3)c3c2CN(C(=O)c2ccc[nH]2)C[C@]3(C)C(N)=O)cc1C", "value_units": "%", "endpoint_value": 7}

====

System: Fibroblast
Assay: Multiplex assay against human fibroblast
Assay type: toxicity, cell-based
Details: 24 h, 1 µM, compound concentration 1 uM, replicate 2

{"molecule": "CNC[C@H](O)c1ccc(O)c(O)c1 [EPINEPHRINE]", "target_desc": "Fibroblast", "Population Normal (%)": 96}
{"molecule": "C[C@H](NC(=O)c1c(C(F)F)nn(C)c1Oc1cccc(C(F)(F)F)c1)c1ccc(C(=O)O)cc1 [PALUPIPRANT]", "target_desc": "Fibroblast", "Population Normal (%)": 92}
{"molecule": "O=C(NCCO)c1cccc(-c2cc(Nc3ccc(OC(F)(F)F)cc3)ncn2)c1", "target_desc": "Fibroblast", "Population Normal (%)": 97}
{"molecule": "CC(C)(C)c1ccc(S(=O)(=O)Nc2ccc(Cl)cc2C(=O)c2cc[n+]([O-])cc2)cc1 [VERCIRNON]", "target_desc": "Fibroblast", "Population Normal (%)": 92}
{"molecule": "COc1cc(NC(=O)CCN2CCC(OC(=O)Nc3ccccc3-c3ccccc3)CC2)c(Cl)cc1CNC[C@H](O)c1ccc(O)c2[nH]c(=O)ccc12 [BATEFENTEROL]", "target_desc": "Fibroblast", "Population Normal (%)": 97}
{"molecule": "c1cc(OCCCN2CCCCC2)ccc1CN1CCCCC1 [JNJ-5207852]", "target_desc": "Fibroblast", "Population Normal (%)": 95}
{"molecule": "CN(C)CCCc1cc(C(=O)Nc2ccc(-c3ccncc3)cc2)ccc1O.Cl.Cl", "target_desc": "Fibroblast", "Population Normal (%)": 95}
{"molecule": "COc1ccc2c(c1)C(C(=O)N(Cc1ccc(N(C)C)cc1)c1ccc(C(C)C)cc1)CCC2.Cl (configuration not stated)", "target_desc": "Fibroblast", "Population Normal (%)": 96}
{"molecule": "C[C@H]1[C@H]2CC[C@H]3[C@@H]4CC=C5C[C@@H](N(C)C)CC[C@]5(C)[C@H]4CC[C@]23CN1C [CONESSINE]", "target_desc": "Fibroblast", "Population Normal (%)": 95}
{"molecule": "Cc1ccc(C(C)(O)c2nc3ccccc3s2)c(C)c1 (configuration not stated)", "target_desc": "Fibroblast", "Population Normal (%)": 94}
{"molecule": "CSCC[C@H](NC=O)C(=O)N[C@@H](CC(C)C)C(=O)N[C@@H](Cc1ccccc1)C(=O)O", "target_desc": "Fibroblast", "Population Normal (%)": 92}
{"molecule": "CN1CCN(c2nc3cc(C(F)(F)F)ccc3n3cccc23)CC1.O=C(O)/C=C\\C(=O)O.O=C(O)/C=C\\C(=O)O", "target_desc": "Fibroblast", "Population Normal (%)": 93}
{"molecule": "Cl.Clc1ccc2nsnc2c1NC1=NCCN1 [TIZANIDINE HYDROCHLORIDE]", "target_desc": "Fibroblast", "Population Normal (%)": 95}
{"molecule": "CCOc1c2c(c(OCC)c3ncccc13)CN(c1ccc(CS(=O)(=O)NC(=O)Cc3ccccc3OC)cc1C)C2=O", "target_desc": "Fibroblast", "Population Normal (%)": 97}
{"molecule": "O=C1COc2nccc(-c3ccccc3F)c2CN1Cc1cc(C(F)(F)F)cc(C(F)(F)F)c1", "target_desc": "Fibroblast", "Population Normal (%)": 97}
{"molecule": "O=C(NCC(=O)N1CC[C@H](N[C@H]2CC[C@@](O)(c3ccc(-c4ncccn4)cn3)CC2)C1)c1cccc(C(F)(F)F)c1 [PF-4136309]", "target_desc": "Fibroblast", "Population Normal (%)": 95}
{"molecule": "Cc1ccc(/C(=C\\CN2CCCC2)c2ccccn2)cc1 [TRIPROLIDINE]", "target_desc": "Fibroblast", "Population Normal (%)": 90}

====

Test system: HEK-293T
Assay: Multiplex assay against HEK293T
Assay type: toxicity, cell-based
Conditions: human, 48 h, 1 µM, compound concentration 1 uM, replicate 2
Listed here: items and their measured Population Hoechst High Intensity Objects (%).
quantity_kind: Population Hoechst High Intensity Objects (%)

{"molecule": "N[C@@]1(C(=O)O)CO[C@H]2[C@H](C(=O)O)[C@H]21", "endpoint_value": 7}
{"molecule": "Cc1ccc(/C(=C\\CN2CCCC2)c2ccccn2)cc1", "endpoint_value": 3}
{"molecule": "CCCn1c(=O)c2[nH]c(C3CCCC3)nc2n(CCC)c1=O", "endpoint_value": 3}
{"molecule": "COc1ccccc1N1CCN(CCCCNC(=O)c2ccc3ccccc3c2)CC1.Cl", "endpoint_value": 5}
{"molecule": "CSc1ccccc1N1CCN(CCCCCC(=O)NC2CCCc3ccccc32)CC1.Cl (configuration not stated)", "endpoint_value": 6}
{"molecule": "O=C(O)c1cc2ccccc2c(Cc2c(O)c(C(=O)O)cc3ccccc23)c1O", "endpoint_value": 7}
{"molecule": "c1cc(OCCCN2CCCCC2)ccc1CN1CCCCC1", "endpoint_value": 1}
{"molecule": "Cc1ccc(C(C)(O)c2nc3ccccc3s2)c(C)c1 (configuration not stated)", "endpoint_value": 3}
{"molecule": "O=C(NCCO)c1cccc(-c2cc(Nc3ccc(OC(F)(F)F)cc3)ncn2)c1", "endpoint_value": 5}
{"molecule": "CN(C)CCCc1cc(C(=O)Nc2ccc(-c3ccncc3)cc2)ccc1O.Cl.Cl", "endpoint_value": 5}
{"molecule": "Cc1ccc(F)cc1C(=O)Nc1ccc(C(=O)N2Cc3cccn3Cc3ccccc32)c(Cl)c1", "endpoint_value": 4}
{"molecule": "O=C1COc2nccc(-c3ccccc3F)c2CN1Cc1cc(C(F)(F)F)cc(C(F)(F)F)c1", "endpoint_value": 4}
{"molecule": "CCOc1c2c(c(OCC)c3ncccc13)CN(c1ccc(CS(=O)(=O)NC(=O)Cc3ccccc3OC)cc1C)C2=O", "endpoint_value": 1}
{"molecule": "CN1CCN(c2nc3cc(C(F)(F)F)ccc3n3cccc23)CC1.O=C(O)/C=C\\C(=O)O.O=C(O)/C=C\\C(=O)O", "endpoint_value": 5}
{"molecule": "CC(=O)NCCc1c(Cc2ccccc2)[nH]c2ccccc12", "endpoint_value": 6}
{"molecule": "C[C@H]1[C@H]2CC[C@H]3[C@@H]4CC=C5C[C@@H](N(C)C)CC[C@]5(C)[C@H]4CC[C@]23CN1C", "endpoint_value": 4}
{"molecule": "N#Cc1c(N)nc(SCc2csc(-c3ccc(Cl)cc3)n2)c(C#N)c1-c1ccc(OCCO)cc1", "endpoint_value": 3}
{"molecule": "CN(C)c1ccnc2sc3c(=O)n(N4CCCCCC4)cnc3c12", "endpoint_value": 3}
{"molecule": "COc1c(C)cc(NC(=O)c2nn(Cc3ccc(F)cc3)c3c2CN(C(=O)c2ccc[nH]2)C[C@]3(C)C(N)=O)cc1C", "endpoint_value": 3}
{"molecule": "CN1CCN2c3ncccc3Cc3ccccc3C2C1 (configuration not stated)", "endpoint_value": 3}
{"molecule": "COc1cc(C(=O)N(CCCc2ccccc2)Cc2ccc(CC(=O)O)cc2)cc(OC)c1C", "endpoint_value": 3}
{"molecule": "CC[C@H]1OC(=O)[C@H](C)[C@@H](O[C@H]2C[C@@](C)(OC)[C@@H](O)[C@H](C)O2)[C@H](C)[C@@H](O[C@@H]2O[C@H](C)C[C@H](N(C)C)[C@H]2O)[C@@]2(C)CC(C)=C(O2)[C@H](C)[C@@H](O)[C@]1(C)O", "endpoint_value": 6}
{"molecule": "C[C@@H]1C[C@H]2[C@@H]3CCC4=CC(=O)C=C[C@]4(C)[C@@]3(F)[C@@H](O)C[C@]2(C)[C@@]1(O)C(=O)CO", "endpoint_value": 3}
{"molecule": "O=C(NCC(=O)N1CC[C@H](N[C@H]2CC[C@@](O)(c3ccc(-c4ncccn4)cn3)CC2)C1)c1cccc(C(F)(F)F)c1", "endpoint_value": 2}
{"molecule": "Cc1nc2ccc(Oc3ccc(F)cc3)cc2c(=O)n1C[C@H]1CCCN(C(C)C)C1.Cl", "endpoint_value": 7}
{"molecule": "C[C@H](NC(=O)c1c(C(F)F)nn(C)c1Oc1cccc(C(F)(F)F)c1)c1ccc(C(=O)O)cc1", "endpoint_value": 4}
{"molecule": "Cc1ccccc1C(=O)Nc1ccc(C(=O)N2CCCC(N(C)C)c3ccccc32)cc1.Cl (configuration not stated)", "endpoint_value": 4}
